test system: Streptococcus pneumoniae; assay: In vivo effective dose against experimental infections in mice Streptococcus pneumoniae park when administered sc; type: functional
Each entry below carries its recorded ED50.
readout.name: ED50

1) CC[C@H]1OC(=O)C[C@@H](O)[C@H](C)[C@@H](O[C@@H]2O[C@H](C)[C@@H](O)[C@H](N(C)C)[C@H]2O)[C@@H](CCOc2ccc(-c3ccccc3)cc2)C[C@@H](C)C(=O)/C=C/C(C)=C/[C@@H]1CO[C@@H]1O[C@H](C)[C@@H](O)[C@@H](OC)[C@H]1OC    > 20 mg/kg
2) CC[C@H]1OC(=O)C[C@@H](O)[C@H](C)[C@@H](O[C@@H]2O[C@H](C)[C@@H](O)[C@H](N(C)C)[C@H]2O)[C@@H](CC=O)C[C@@H](C)C(=O)/C=C/C(C)=C/[C@@H]1CO[C@@H]1O[C@H](C)[C@@H](O)[C@@H](OC)[C@H]1OC    > 10 mg/kg
3) CC[C@H]1OC(=O)C[C@@H](O)[C@H](C)[C@@H](O[C@@H]2O[C@H](C)[C@@H](O)[C@H](N(C)C)[C@H]2O)[C@@H](CCOc2cccc(Oc3ccccc3)c2)C[C@@H](C)C(=O)/C=C/C(C)=C/[C@@H]1CO[C@@H]1O[C@H](C)[C@@H](O)[C@@H](OC)[C@H]1OC    > 20 mg/kg
4) CC[C@H]1OC(=O)C[C@@H](O)[C@H](C)[C@@H](O[C@@H]2O[C@H](C)[C@@H](O)[C@H](N(C)C)[C@H]2O)[C@@H](CCOc2ccc(Oc3ccccc3)cc2)C[C@@H](C)C(=O)/C=C/C(C)=C/[C@@H]1CO[C@@H]1O[C@H](C)[C@@H](O)[C@@H](OC)[C@H]1OC    > 20 mg/kg

Source of measurements: ChEMBL document CHEMBL1124186
